pIC50: −log10 of the molar value.
Here's a roundup of pIC50 values tested on Neuropeptide Y receptor type 5 (Homo sapiens, UniProt Q15761), taken from various published works.
Sequence (Q15761 whole entry): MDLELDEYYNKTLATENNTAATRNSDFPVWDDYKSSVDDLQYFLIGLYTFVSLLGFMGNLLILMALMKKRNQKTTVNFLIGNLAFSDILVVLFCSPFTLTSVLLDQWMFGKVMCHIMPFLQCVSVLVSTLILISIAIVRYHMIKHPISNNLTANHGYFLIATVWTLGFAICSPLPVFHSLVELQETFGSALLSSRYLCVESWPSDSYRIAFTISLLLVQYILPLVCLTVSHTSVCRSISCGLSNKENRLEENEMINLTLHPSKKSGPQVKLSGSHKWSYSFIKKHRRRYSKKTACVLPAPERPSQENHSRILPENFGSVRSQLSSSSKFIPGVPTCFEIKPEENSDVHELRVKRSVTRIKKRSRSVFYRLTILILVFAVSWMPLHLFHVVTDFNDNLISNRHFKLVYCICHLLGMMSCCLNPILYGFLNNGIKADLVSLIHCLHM
Assay Metric: pIC50

Compound: CC(C)(C)S(=O)(=O)N[C@H]1CC[C@H](C(=O)NNc2ccc(Cl)c(Cl)c2)CC1
Assay Metric: pIC50
Measured: 8.64
//
Compound: CCc1cc(C2=N[C@@](c3ccc(F)cc3)(c3ccc(F)nc3)[C@H](C)N2)cn(C)c1=O
Assay Metric: pIC50
Measured: 8.59
//
Compound: O=C1OC2(CCC(c3cc(-c4ccnc(-c5ccccc5)n4)[nH]n3)CC2)c2ccccc21 (stereo not shown)
Assay Metric: pIC50
Measured: 8.57
//
Compound: CCn1cc(C2=N[C@@](c3ccc(F)cc3)(c3ccc(F)nc3)[C@H](C)N2)cc(F)c1=O
Assay Metric: pIC50
Measured: 8.54
